assay: Oral bioavailability in dog at 3 mg/kg; type: ADME, organism-based, Canis lupus familiaris; details: in vivo
measured attribute: bioavailability (%)

> print(dat)
                                 cpd.smiles  measured.attribute  quantitative.result
1  COc1ccc2c(c1)[C@@H]1C[C@]1(C(=O)N1C3CCC1CN(C)C3)Cn1c-2c(C2CCCCC2)c2ccc(C(=O)NS(=O)(=O)C(C)C)cc21     bioavailability                  100

###

experiment: Clearance in rat at 10 mg/kg, po; type: ADME, organism-based; details: in vivo
Please use yes (1) for CL/F under 10 mL/min/kg and no (0) for everything else, ties included.

> print(dat)
                                   compound  assigned.class
1  COc1ccc2c(c1)C1CC1(C(=O)N1C3CCC1CN(C)C3)Cn1c-2c(C2CCCCC2)c2ccc(C(=O)NS(C)(=O)=O)cc21 (racemic)          no (0)
2  CCCS(=O)(=O)NC(=O)c1ccc2c(C3CCCCC3)c3n(c2c1)CC1(C(=O)N2C4CCC2CN(C)C4)CC1c1cc(OC)ccc1-3 (racemic)          no (0)
3  COc1ccc2c(c1)[C@@H]1C[C@]1(C(=O)N1C3CCC1CN(C)C3)Cn1c-2c(C2CCCCC2)c2ccc(C(=O)NS(=O)(=O)C3CCC3)cc21          no (0)
4  COc1ccc2c(c1)C1CC1(C(=O)N1C3CCC1CN(C)C3)Cn1c-2c(C2CCCCC2)c2ccc(C(=O)NS(=O)(=O)CC(C)C)cc21 (racemic)         yes (1)
5  COc1ccc2c(c1)C1CC1(C(=O)N1C3CCC1CN(C)C3)Cn1c-2c(C2CCCCC2)c2ccc(C(=O)NS(=O)(=O)CC(C)(C)C)cc21 (racemic)         yes (1)
6  COc1ccc2c(c1)C1CC1(C(=O)N1C3CCC1CN(C)C3)Cn1c-2c(C2CCCCC2)c2ccc(C(=O)NS(=O)(=O)CC3CC3)cc21 (racemic)          no (0)

###

experiment: Ratio of drug level in liver to plasma in rat at 10 mg/kg, po after 6 hrs; type: ADME, organism-based
measured attribute: Kp at 6 h

> print(dat)
                                   compound  quantitative.result
1  CCS(=O)(=O)NC(=O)c1ccc2c(C3CCCCC3)c3n(c2c1)CC1(C(=O)N2C4CCC2CN(C)C4)CC1c1cc(OC)ccc1-3 (racemic)                  108
2  COc1ccc2c(c1)C1CC1(C(=O)N1C3CCC1CN(C)C3)Cn1c-2c(C2CCCCC2)c2ccc(C(=O)NS(=O)(=O)CC(C)C)cc21 (racemic)                  150
3  CCCS(=O)(=O)NC(=O)c1ccc2c(C3CCCCC3)c3n(c2c1)CC1(C(=O)N2C4CCC2CN(C)C4)CC1c1cc(OC)ccc1-3 (racemic)                  120
4  COc1ccc2c(c1)[C@@H]1C[C@]1(C(=O)N1C3CCC1CN(C)C3)Cn1c-2c(C2CCCCC2)c2ccc(C(=O)NS(=O)(=O)CC(C)C)cc21                   47
5  COc1ccc2c(c1)C1CC1(C(=O)N1C3CCC1CN(C)C3)Cn1c-2c(C2CCCCC2)c2ccc(C(=O)NS(=O)(=O)C3CCCC3)cc21 (racemic)                   36
